The measurements presented in this section are drawn from the supplement of paper PMC10567573.

Can you tell me protein stability index for the items I'm about to list?
B1: CHCHD6 (parent)
chain: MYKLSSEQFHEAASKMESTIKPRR

Variants of: B1
Assay: protein stability index of a GFP-peptide fusion (GPS, HEK-293T) (PSI 1-6); higher = more stable;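 note: lentivirally expressed fusions sorted by FACS into six bins by GFP to DsRed ratio, PSI derived from sequencing read proportions per bin multiplied by bin number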
Conditions: c terminus: a fixed tail appended
Please reply with the value in numeric form only.

Ask: Annotate the variant A12G with its measured protein stability index.
Reply: 3.69

Ask: Quick one: give measured protein stability index for Q8G
Reply: 3.35

Ask: # return recorded protein stability index for input R23Q
Reply: 3.12

Ask: In one line, give reported protein stability index of the entry M16A .
Reply: 4.17

Ask: Give a short answer stating reported protein stability index for K15E .
Reply: 4.42

Ask: Look up and report measured protein stability index for this entry: M1T
Reply: 4.12

Ask: Answer with the recorded protein stability index for the variant listed here: M16C
Reply: 3.58

Ask: // Input: R23H . Output its protein stability index only.
Reply: 3.96

Ask: Determine its reported protein stability index: F9V
Reply: 3.36

Ask: Complete the entry with protein stability index for K3E
Reply: 3.66

Ask: Return value of protein stability index for input H10C , no commentary.
Reply: 3.93

Ask: Quick one: give measured protein stability index for F9W
Reply: 3.23

Ask: Identify protein stability index associated with the variant Y2A
Reply: 4.55

Ask: Hello, please tell me recorded protein stability index for this one: E7I
Reply: 3.1

Ask: Using the record for A12V , state its measured protein stability index.
Reply: 3.58

Ask: Indicate its recorded protein stability index; the variant in question is E7Y
Reply: 2.82

Ask: Give a short answer stating reported protein stability index for T19N .
Reply: 4

Ask: Using known records, supply protein stability index for S5T
Reply: 3.64

Ask: Using known records, supply protein stability index for R23W
Reply: 2.54

Ask: Name the recorded protein stability index of the item E11F in your answer.
Reply: 2.65

Ask: Give the reported value of protein stability index for this record: M16W
Reply: 3.41

Ask: Report protein stability index for K21Q
Reply: 3.22
